Biological target: Ba/F3 cells transformed with human Tel-TrkA (Homo sapiens)
Construct: expressed in transfected cells; host or cells: Ba/F3 murine hematopoietic progenitor cells (luciferase expressing); the other entry of the earlier key: ETV6 (P41212, Transcription factor ETV6)
Sequence (P04629 510-796 limits assumed): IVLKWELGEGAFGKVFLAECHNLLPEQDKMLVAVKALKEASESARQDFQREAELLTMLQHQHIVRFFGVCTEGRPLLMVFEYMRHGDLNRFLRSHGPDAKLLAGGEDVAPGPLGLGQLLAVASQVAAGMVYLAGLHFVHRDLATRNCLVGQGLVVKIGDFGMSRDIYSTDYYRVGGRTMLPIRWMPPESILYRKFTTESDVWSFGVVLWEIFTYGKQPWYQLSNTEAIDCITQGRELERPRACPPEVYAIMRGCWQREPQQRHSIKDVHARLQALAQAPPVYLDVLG
Experiment: Proliferation of Ba/F3 cells transformed with human Tel-TrkA (Ba/F3 Tel-TrkA)
Format: cell-based
Conditions: Table 1; 48 hours, Bright Glo luminescence; read-out: Ba/F3 Tel-TrkA
pIC50: −log10 of the molar value.
Binary classification by pIC50, with 7 as an inclusive lower bound for yes (1); all other cases are no (0).

Below, 2 compounds whose answers are already recorded.
CONC(=O)c1cnc2ccc(N3CCC[C@@H]3c3cccc(F)c3)nn12 | yes (1)
CC(C)(C)[C@@H](CO)NC(=O)c1cnc2ccc(N3CCC[C@@H]3c3cccc(F)c3)nn12 | no (0)

Record N#CCC(=O)Nc1cnc2ccc(N3CCC[C@@H]3c3cccc(F)c3)nn12 ; criterion: pIC50 no lower than 7. Met?
no (0)

Same read-out for CC(C)(C)OC(=O)Nc1cnc2ccc(N3CCC[C@@H]3c3cccc(F)c3)nn12 ?
no (0)

Same read-out for O=C(NCc1ccc(N2CC[C@@H](O)C2)nc1)c1cnc2ccc(N3CCC[C@@H]3c3cccc(F)c3)nn12 ?
no (0)

Same read-out for O=C(CCc1cccc(F)c1)c1cnc2ccc(N3CCC[C@@H]3c3cccc(F)c3)nn12 ?
yes (1)

Same read-out for O=C(NCCCCO)c1cnc2ccc(N3CCC[C@@H]3c3cccc(F)c3)nn12 ?
yes (1)

Same read-out for CC(=O)N1CC[C@@H](NC(=O)c2cnc3ccc(N4CCC[C@@H]4c4cccc(F)c4)nn23)C1 ?
no (0)

Same read-out for CC(=O)OCC(=O)Nc1cnc2ccc(N3CCC[C@@H]3c3cccc(F)c3)nn12 ?
yes (1)

Same read-out for CC(C)(C)OC(=O)N1CCC(NC(=O)c2cnc3ccc(N4C[C@@H](F)C[C@@H]4c4cccc(F)c4)nn23)CC1 ?
yes (1)

Same read-out for NS(=O)(=O)N1CCC(NC(=O)c2cnc3ccc(N4CCC[C@@H]4c4cccc(F)c4)nn23)CC1 ?
no (0)

Same read-out for Cn1cccc1/C=C/C(=O)c1cnc2ccc(N3CCC[C@@H]3c3cccc(F)c3)nn12 ?
yes (1)
